- Target or system: HLA-A*24 (human)
- Experiment description: UV peptide exchange, anti-b2m ELISA
Can you tell me peptide exchange yield for the items I'm about to list?

Problem: Form field: reported peptide exchange yield of VYGFQWRHF [SEQ ID No 276 peptide …]
Solution: > 75%

Problem: Same for VYVGGGQIIHL [SEQ ID No 174 peptide …]
Solution: 50 to 75%

Problem: Same for VYPWLGALL [SEQ ID No 177 peptide …]
Solution: > 75%

Problem: Same for QYLQDAYSF [SEQ ID No 272 peptide …]
Solution: > 75%

Problem: Same for HYPPVQVLF [SEQ ID No 285 peptide …]
Solution: 50 to 75%

Problem: Same for YYVESGKLF [SEQ ID No 166 peptide …]
Solution: > 75%

Problem: Same for EFGSLHLEFL [SEQ ID No 194 peptide …]
Solution: < 20%

Problem: Same for VYQGHTALL [SEQ ID No 277 peptide …]
Solution: > 75%
